# System: SST2 (Homo sapiens, UniProt P30874)
# Construct: host or cells: PathHunter CHO-K1 SST2 cells
# Sequence (P30874 whole entry): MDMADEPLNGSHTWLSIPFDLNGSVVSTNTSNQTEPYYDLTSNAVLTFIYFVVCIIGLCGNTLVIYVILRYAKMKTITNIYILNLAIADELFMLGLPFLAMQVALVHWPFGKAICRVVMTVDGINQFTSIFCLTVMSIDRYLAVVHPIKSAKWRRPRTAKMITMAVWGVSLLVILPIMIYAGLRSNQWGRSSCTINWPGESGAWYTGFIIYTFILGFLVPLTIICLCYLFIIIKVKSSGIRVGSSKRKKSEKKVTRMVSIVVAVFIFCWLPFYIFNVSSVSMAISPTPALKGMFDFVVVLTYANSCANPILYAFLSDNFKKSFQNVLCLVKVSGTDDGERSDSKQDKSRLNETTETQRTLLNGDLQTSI
# Assay: PathHunter CHO-K1 SST2 Internalization Assay
# Format: cell-based
# Cond: PathHunter CHO-K1 SST2 cells; 90 min at 37 C; luminescence; read-out: Internalization EC50
pEC50: −log10 of the molar value. *1 amine or outer side, *2 acyl side, *3 side chain or, on linkers, in order; H or OH if unused. Where a SMILES comes first, the peptide text is derived from it. [ ]: non-standard residue; d: D form. The star is where a group is joined. X4 = Cc1cc(F)cc(-c2cnc(NCCNC(=O)CCOCCC(=O)*)c(-c3nc4ccc(Cl)cc4[nH]3)c2N2CCC(N)CC2)c1; Dolaproine = CO[C@@H]([C@@H]1CCCN1)[C@@H](C)C(=O)O; Dil = CC[C@H](C)[C@H](NC)[C@@H](CC(=O)O)OC; PABC = O=C(OCc1ccc(N[*:1])cc1)[*:2]; X2 = C[C@@H](N*)[C@@H](O)c1ccccc1; Cit = NC(=O)NCCC[C@H](N)C(=O)O; NMeV = CN[C@H](C(=O)O)C(C)C; PEG1 = NCCOCCC(=O)O
Classify as follows. Reported pEC50 greater than or equal to 8: Satisfied. Reported pEC50 below: Not satisfied.

Reference set (3 entries):
CC[C@H](C)[C@@H]([C@@H](CC(=O)N1CCC[C@H]1[C@H](OC)[C@@H](C)C(=O)N[C@H](C)[C@@H](O)c1ccccc1)OC)N(C)C(=O)[C@@H](NC(=O)[C@H](C(C)C)N(C)C(=O)OCc1ccc(NC(=O)[C@H](CCCNC(N)=O)NC(=O)[C@@H](NC(=O)C[C@@H](N)C(=O)NCCOCCC(=O)NCCNc2ncc(-c3cc(C)cc(F)c3)c(N3CCC(NC)CC3)c2-c2nc3cc(F)cc(OC)c3[nH]2)C(C)C)c(O[C@@H]2O[C@H](C(=O)O)[C@@H](O)[C@H](O)[C@H]2O)c1)C(C)C = Satisfied
CC[C@H](C)[C@@H]([C@@H](CC(=O)N1CCC[C@H]1[C@H](OC)[C@@H](C)C(=O)N[C@H](C)[C@@H](O)c1ccccc1)OC)N(C)C(=O)[C@@H](NC(=O)[C@H](C(C)C)N(C)C(=O)OCc1ccc(NC(=O)[C@H](C)NC(=O)[C@@H](NC(=O)CCOCCC(=O)NCCNc2ncc(-c3cc(C)cc(F)c3)c(N3CCC(N)CC3)c2-c2nc3ccc(Cl)cc3[nH]2)C(C)C)c(O)c1)C(C)C = Satisfied
CC[C@H](C)[C@@H]([C@@H](CC(=O)N1CCC[C@H]1[C@H](OC)[C@@H](C)C(=O)N[C@H](C)[C@@H](O)c1ccccc1)OC)N(C)C(=O)[C@@H](NC(=O)[C@H](C(C)C)N(C)C(=O)OCc1ccc(NC(=O)[C@H](CCCNC(N)=O)NC(=O)[C@@H](NC(=O)[C@H](CCC(=O)O)NC(=O)CCOCCC(=O)NCCNc2ncc(-c3cc(C)cc(F)c3)c(N3CCC(N)CC3)c2-c2nc3ccc(Cl)cc3[nH]2)C(C)C)cc1C(=O)NOCCN)C(C)C = Satisfied

Now take the following compound into account.
Input line: Would you say CC[C@H](C)[C@@H]([C@@H](CC(=O)N1CCC[C@H]1[C@H](OC)[C@@H](C)C(=O)N[C@H](C)[C@@H](O)c1ccccc1)OC)N(C)C(=O)[C@@H](NC(=O)[C@H](C(C)C)N(C)C(=O)OCc1ccc(NC(=O)[C@H](CCCNC(N)=O)NC(=O)[C@@H](NC(=O)CCOCCNC(=O)[C@H](CCC(=O)O)NC(=O)[C@H](CCC(N)=O)NC(=O)CCOCCC(=O)NCCNc2ncc(-c3cc(C)cc(F)c3)c(N3CCC(N)CC3)c2-c2nc3ccc(Cl)cc3[nH]2)C(C)C)cc1)C(C)C [Compound 191] (X4-QE[PEG1]V[Cit][PABC][NMeV]V[Dil][Dolaproine]-X2) shows pEC50 at minimum 8?
Output line: Not satisfied
